tested_on: furin, P09958
Sequence (P09958 whole entry): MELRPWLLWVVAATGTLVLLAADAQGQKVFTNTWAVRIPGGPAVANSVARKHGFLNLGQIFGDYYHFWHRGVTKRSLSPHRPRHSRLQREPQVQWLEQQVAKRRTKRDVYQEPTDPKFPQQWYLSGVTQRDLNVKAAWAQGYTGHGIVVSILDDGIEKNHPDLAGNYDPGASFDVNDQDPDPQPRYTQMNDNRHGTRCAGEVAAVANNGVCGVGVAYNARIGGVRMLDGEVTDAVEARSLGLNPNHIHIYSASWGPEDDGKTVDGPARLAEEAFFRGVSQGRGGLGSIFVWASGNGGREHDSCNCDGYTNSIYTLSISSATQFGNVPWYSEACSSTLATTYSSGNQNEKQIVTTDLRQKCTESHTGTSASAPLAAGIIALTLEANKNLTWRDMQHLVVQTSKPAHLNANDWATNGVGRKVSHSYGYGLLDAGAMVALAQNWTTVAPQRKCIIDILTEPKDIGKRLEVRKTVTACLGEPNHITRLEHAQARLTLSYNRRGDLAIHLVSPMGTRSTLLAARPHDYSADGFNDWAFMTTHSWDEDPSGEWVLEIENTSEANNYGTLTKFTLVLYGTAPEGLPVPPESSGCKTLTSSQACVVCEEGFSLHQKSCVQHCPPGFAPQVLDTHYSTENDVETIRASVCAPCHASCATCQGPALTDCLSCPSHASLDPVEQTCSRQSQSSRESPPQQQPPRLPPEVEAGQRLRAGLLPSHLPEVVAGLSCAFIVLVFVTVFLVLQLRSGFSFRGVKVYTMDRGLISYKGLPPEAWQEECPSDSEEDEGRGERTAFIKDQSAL
assay_method_text: furin cleavage Z-score vs untreated control; higher = more cleavage, active = 3.5 or more, inactive = 1 or less, 8 variable residues between constant flanks;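 note: purified furin at 1:10 enzyme:substrate in 50 mM HEPES pH 7.5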
condition_label: 15 min
Some of the results follow. The hit rate among all sequences tested is not known here.
Record t whenever furin cleavage Z-score is at 1 or higher; record f when lower.

Query: Given CATTPCSGSMAGNASASA [HC1926] , state whether its furin cleavage Z-score is at least 1.
Response: f

Query: Given CATSSRSARKAGNASASA [FS-1617] , state whether its furin cleavage Z-score is at least 1.
Response: t

Query: Given CALDLSGWFTAGNASASA [HC1643] , state whether its furin cleavage Z-score is at least 1.
Response: f

Query: Given CAYDSMKKRDAGNASASA [FS-389] , state whether its furin cleavage Z-score is at least 1.
Response: f

Query: Given CATSSRRKRDAGNASASA [FS-630] , state whether its furin cleavage Z-score is at least 1.
Response: t

Query: Given CAIITRWKRDAGNASASA [FS-1013] , state whether its furin cleavage Z-score is at least 1.
Response: t

Query: Given CARPSRPWRDAGNASASA [FS-1479] , state whether its furin cleavage Z-score is at least 1.
Response: t
